We begin with a simple list: items and their reported log10 of ED30.
# Tested on: Rattus norvegicus
# Method Summary: Dose required to reduce mean blood pressure after 20 hr following (po) administration conscious spontaneously hypertensive rat
# Type: functional
Please interpret these as log10 of ED30 where ED30 is in mg/kg.

Before answering, review these 3 worked examples.
CC1(C)Oc2ccc(C#N)cc2C(N2N=CCCC2=O)[C@@H]1O (stereo partly specified): -0.83
CC1(C)Oc2ccc(C#N)cc2C(n2ccncc2=O)[C@@H]1O (stereo partly specified): 0.11
CC(=O)O[C@H]1[C@H](n2ccccc2=O)c2cc(C#N)ccc2OC1(C)C: -0.39

Input line: Suppose we examine the compound "COC(=O)c1ccc2c(c1)C(n1ccccc1=O)=CC(C)(C)O2" ; what log10 of ED30 value has been reported?
Output line: 0.31

Input line: Suppose we examine the compound CC1(C)Oc2ccc(C#N)cc2C(n2ncccc2=O)[C@@H]1O (stereo partly specified) ; what log10 of ED30 value has been reported?
Output line: -1.09

Input line: Suppose we examine the compound "CC1(C)Oc2ccc(C#N)cc2[C@@H](n2ccccc2=O)[C@@H]1OC=O" ; what log10 of ED30 value has been reported?
Output line: -0.38

* * *

# System: Rattus norvegicus
# Method Summary: Dose required to reduce mean blood pressure after 2 hr following (po) administration conscious spontaneously hypertensive rat
# Format: functional
# ED30 >= 0.1 mg/kg gives 1 (yes), anything below gives 0 (no)

Input line: Item "CCOc1ccn(C2=CC(C)(C)Oc3ccc(C#N)cc32)c(=O)c1" with ED30 of 0.1 mg/kg or above?
Output line: 1 (yes)

Input line: Item CC1(C)Oc2ccc(C#N)cc2[C@H](N2CCCC2=O)[C@H]1O [(-)-CROMAKALIM] with ED30 of 0.1 mg/kg or above?
Output line: 1 (yes)

* * *

# Test system: Rattus norvegicus
# Method Summary: Antihypertensive effect after 1 mg/kg (po) administration in conscious spontaneously hypertensive rat (over a time period of 0-210 minutes).
# Assay type: functional
Measure: Max fall in blood pressure
Remember to quote the unit after the number.

Input line: Suppose we examine the molecule "CC1(C)C=C(n2ccccc2=O)c2cc(Br)ccc2O1" ; what Max fall in blood pressure value has been reported?
Output line: 131 mmHg

* * *

# Test system: Rattus norvegicus
# Method Summary: Antihypertensive effect after 1 mg/kg (po) administration in conscious spontaneously hypertensive rat (over a time period of 0-210 minutes).
# Assay type: functional
Measure: Max fall in blood pressure (mmHg)
Kindly answer with a numeric value in mmHg, unit omitted.

CC1(C)C=C(n2cc(Cl)ccc2=O)c2cc(C#N)ccc2O1: 23

Input line: Suppose we examine the compound "CC(=O)Nc1cccn([C@@H]2c3cc(C#N)ccc3OC(C)(C)[C@H]2O)c1=O" ; what Max fall in blood pressure value has been reported?
Output line: 22

Input line: Suppose we examine the compound "COC1=C(n2ccccc2=O)c2cc(C#N)ccc2OC1(C)C" ; what Max fall in blood pressure value has been reported?
Output line: 22

Input line: Suppose we examine the compound "CC1(C)C=C(n2ccccc2=O)c2cc([N+](=O)[O-])ccc2O1" ; what Max fall in blood pressure value has been reported?
Output line: 140

Input line: Suppose we examine the compound CC1(C)Oc2ccc(C#N)cc2C(N2N=CCCC2=O)[C@@H]1O (stereo not given in full) ; what Max fall in blood pressure value has been reported?
Output line: 63
